Overview of reported SDR + 10 mM ATP across a group of compounds:
Biological target: FLuc-C-NLuc (firefly luciferase) (Photinus pyralis, UniProt P08659, form not given/L550V)
Sequence (P08659 2-550 L550V, form open): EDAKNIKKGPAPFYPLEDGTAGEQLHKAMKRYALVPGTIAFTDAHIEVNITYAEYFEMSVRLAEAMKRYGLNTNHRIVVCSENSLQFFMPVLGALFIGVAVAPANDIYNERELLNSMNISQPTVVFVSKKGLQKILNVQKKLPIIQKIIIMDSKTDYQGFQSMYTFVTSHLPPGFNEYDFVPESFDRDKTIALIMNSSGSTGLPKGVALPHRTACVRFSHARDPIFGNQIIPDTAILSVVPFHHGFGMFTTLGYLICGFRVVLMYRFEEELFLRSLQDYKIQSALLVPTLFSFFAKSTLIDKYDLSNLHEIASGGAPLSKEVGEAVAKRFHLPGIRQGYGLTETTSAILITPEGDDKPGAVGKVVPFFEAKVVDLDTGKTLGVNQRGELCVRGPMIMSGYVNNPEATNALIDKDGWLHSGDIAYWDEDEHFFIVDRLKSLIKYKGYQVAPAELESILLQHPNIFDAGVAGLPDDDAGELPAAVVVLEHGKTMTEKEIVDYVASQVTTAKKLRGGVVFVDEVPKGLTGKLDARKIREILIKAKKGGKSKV
Assay: SDR assay, FLuc-C-NLuc
Conditions: 1 nM FLuc-C-NLuc; normalized activity; Log [Compound], M -8.78

compound	experimental-system	quantity-measured	observed-measurement
Fc1ccc(-c2cn3cc(Cc4ccccc4)sc3n2)cc1	FLuc-C-NLuc (firefly luciferase) (Photinus pyralis, UniProt P08659, form not given/L550V)	SDR + 10 mM ATP	8.5

Measured SDR + 10 mM ATP, Cc1ccc(-n2ncc3c(N4CCCCCC4)ncnc32)cc1 : 0.316

###

Overview of reported IC50 across a group of molecules:
Target: FLuc-C-HiBiT (Photinus pyralis, UniProt P08659)
Construct: firefly luciferase with C-terminal HiBiT tag, E. coli expressed
Sequence (P08659 whole entry, looked up): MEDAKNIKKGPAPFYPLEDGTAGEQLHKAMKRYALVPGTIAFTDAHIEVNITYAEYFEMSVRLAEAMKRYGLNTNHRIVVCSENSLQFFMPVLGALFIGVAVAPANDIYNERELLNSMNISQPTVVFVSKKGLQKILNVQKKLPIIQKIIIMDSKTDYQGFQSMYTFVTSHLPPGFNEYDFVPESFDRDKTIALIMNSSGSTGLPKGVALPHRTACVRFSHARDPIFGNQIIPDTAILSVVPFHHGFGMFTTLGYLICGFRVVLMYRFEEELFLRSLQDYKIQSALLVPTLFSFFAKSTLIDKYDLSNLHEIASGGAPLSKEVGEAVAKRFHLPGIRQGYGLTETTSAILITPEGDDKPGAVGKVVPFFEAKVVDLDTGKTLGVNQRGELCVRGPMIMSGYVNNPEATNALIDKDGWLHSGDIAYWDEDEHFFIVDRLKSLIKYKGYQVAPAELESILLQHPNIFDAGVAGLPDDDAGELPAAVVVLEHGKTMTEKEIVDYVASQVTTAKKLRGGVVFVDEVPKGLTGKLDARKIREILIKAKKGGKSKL
Assay: biochemical
Conditions: enzyme activity, 10 uM ATP; read-out: IC50 or SDR50 (mM) / FLuc E
A number alone suffices; assume mM.

The cases that follow already have their IC50 on record.
molecule	observed-measurement
COc1ccc(Nc2nc(-c3ccccc3F)no2)cc1OC	0.00351
CCOC(=O)c1ccc(NC(=O)c2csc3c2CCCC3)cc1	0.0157
COc1ccccc1-c1nc2cc(NC(=O)c3ccccc3Cl)ccc2o1	0.0111
Cc1cc2c(c(-c3nc4ccccc4s3)c1)OC(CNC(=O)c1occc1C)C2 (stereo not drawn)	0.0124
Oc1ccccc1CN1CCNc2cc(Nc3ccccc3)ncc2C1	0.0124
FC(F)(F)c1cc(-c2nc3ccccc3s2)cc(C(F)(F)F)c1	0.0124

Item O=C(Nc1ccccc1)c1nc2c(o1)CCN(Cc1ccc(O)cc1)CC2 was tested on FLuc-C-HiBiT (Photinus pyralis, UniProt P08659); the reported IC50 is 0.00508

Item O=C1c2cnc(-c3ccc(Cl)cc3)nc2OCCN1CC1CC1 was tested on FLuc-C-HiBiT (Photinus pyralis, UniProt P08659); the reported IC50 is 0.00404

Item Cc1ccc(-n2ncc3c(NC4CCCCC4)ncnc32)cc1C was tested on FLuc-C-HiBiT (Photinus pyralis, UniProt P08659); the reported IC50 is 0.00176

Item c1ccc(Nc2cc3c(cn2)CN(Cc2cc[nH]n2)CCN3)cc1 was tested on FLuc-C-HiBiT (Photinus pyralis, UniProt P08659); the reported IC50 is 0.0161

Item CCOCC(=O)N1c2ccccc2CC1c1noc(C(C)C)n1 (stereo not drawn) was tested on FLuc-C-HiBiT (Photinus pyralis, UniProt P08659); the reported IC50 is 0.0124

Item Cc1c(-c2ccc(F)cc2)[nH]c2ccc(CNC(=O)CN3CCOC3=O)cc12 was tested on FLuc-C-HiBiT (Photinus pyralis, UniProt P08659); the reported IC50 is 0.0111

Item Cc1ccc(-n2ncc3c(N4CCCCC4)ncnc32)cc1 was tested on FLuc-C-HiBiT (Photinus pyralis, UniProt P08659); the reported IC50 is 0.000197

Item COc1cccc(C(=O)NCCn2ccn3nc(-c4ccc(C)cc4C)cc3c2=O)c1OC was tested on FLuc-C-HiBiT (Photinus pyralis, UniProt P08659); the reported IC50 is 0.00989

Item CCN1C(=O)CCc2cc(NC(=O)c3ccc(OC(F)(F)F)cc3)ccc21 was tested on FLuc-C-HiBiT (Photinus pyralis, UniProt P08659); the reported IC50 is 0.0111
